Molecular target: Growth hormone secretagogue receptor type 1 (Homo sapiens)
Sequence (Q92847 whole entry): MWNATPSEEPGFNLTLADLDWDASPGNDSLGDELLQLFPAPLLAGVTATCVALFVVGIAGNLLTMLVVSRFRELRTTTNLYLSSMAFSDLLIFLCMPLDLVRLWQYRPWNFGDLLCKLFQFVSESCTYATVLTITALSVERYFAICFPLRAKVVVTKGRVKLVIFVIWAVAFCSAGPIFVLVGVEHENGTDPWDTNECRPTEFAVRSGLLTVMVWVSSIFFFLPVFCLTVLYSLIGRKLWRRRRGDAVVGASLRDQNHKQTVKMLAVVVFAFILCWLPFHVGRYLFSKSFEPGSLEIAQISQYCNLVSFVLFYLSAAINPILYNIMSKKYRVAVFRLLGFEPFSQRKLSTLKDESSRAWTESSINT
Assay: Binding affinity to human ghrelin receptor
propertyMeasured: IC50

So, `CNc1nc(NCc2ccc(NS(C)(=O)=O)cc2Cl)cc(-c2ccccn2)n1` ? Its IC50 was > 30 µM

* * *

Assay: Protein binding in rat plasma
Assay type: ADME, cell-free
Conditions: read-out: PPB (converted)
propertyMeasured: fraction unbound
Please respond with just the number, no unit label.

So, `CNc1nc(NCc2ccc(NS(C)(=O)=O)cc2Cl)cc(-c2ccccn2)n1` ? Its fraction unbound was 0.007

* * *

Experiment: Protein binding in mouse plasma
Assay type: ADME, cell-free
Details: read-out: PPB (converted)
propertyMeasured: fraction unbound
Please respond with just the number, no unit label.

So, `CNc1nc(NCc2ccc(NS(C)(=O)=O)cc2Cl)cc(-c2ccccn2)n1` ? Its fraction unbound was 0.009

* * *

Biological target: Neurotensin receptor type 1 (Homo sapiens, UniProt P30989)
Sequence (P30989 whole entry): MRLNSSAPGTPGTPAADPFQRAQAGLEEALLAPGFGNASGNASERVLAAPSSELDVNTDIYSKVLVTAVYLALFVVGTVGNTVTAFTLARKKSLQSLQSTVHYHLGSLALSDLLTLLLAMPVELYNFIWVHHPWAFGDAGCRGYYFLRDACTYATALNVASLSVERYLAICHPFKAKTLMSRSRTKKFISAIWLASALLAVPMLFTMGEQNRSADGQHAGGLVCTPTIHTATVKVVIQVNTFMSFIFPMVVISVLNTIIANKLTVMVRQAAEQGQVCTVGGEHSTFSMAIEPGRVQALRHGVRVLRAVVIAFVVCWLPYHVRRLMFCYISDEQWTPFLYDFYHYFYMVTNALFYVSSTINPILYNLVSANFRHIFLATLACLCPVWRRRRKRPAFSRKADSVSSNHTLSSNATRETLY
propertyMeasured: IC50

So, `CNc1nc(NCc2ccc(NS(C)(=O)=O)cc2Cl)cc(-c2ccccn2)n1` ? Its IC50 was > 30 µM

* * *

Biological target: Protein Gpr39 (Rattus norvegicus)
Sequence (A6QR73 whole entry): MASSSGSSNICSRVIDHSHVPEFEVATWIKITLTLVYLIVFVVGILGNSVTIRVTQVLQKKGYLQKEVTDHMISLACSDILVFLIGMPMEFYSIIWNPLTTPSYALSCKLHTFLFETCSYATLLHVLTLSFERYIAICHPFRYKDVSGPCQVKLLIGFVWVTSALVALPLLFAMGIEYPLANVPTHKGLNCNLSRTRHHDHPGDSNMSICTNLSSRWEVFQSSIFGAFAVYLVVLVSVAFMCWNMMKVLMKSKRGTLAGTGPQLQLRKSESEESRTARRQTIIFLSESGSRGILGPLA
Test: Agonist activity at rat GPR39 expressed in HEK293 cells by IP1 assay
Format: functional, cell-based
propertyMeasured: EC50 (nM)
Numeric only. Scale: nM

Example results:
[
  {
    "compound": "CNc1nc(NCc2ccc(NC(C)=O)cc2F)cc(-c2ccccn2)n1",
    "recordedMeasurement": 0.6
  },
  {
    "compound": "[Cl-].[Cl-].[Zn+2] [ZINC CHLORIDE]",
    "recordedMeasurement": 4040
  },
  {
    "compound": "CNc1nc(NCc2ccc(NC(C)=O)cc2)cc(-c2ccccn2)n1",
    "recordedMeasurement": 2
  }
]

So, `CNc1nc(NCc2ccc(NS(C)(=O)=O)cc2)cc(-c2ccccn2)n1` ? Its EC50 was 3

So, `CNc1nc(NCc2ccc(NS(C)(=O)=O)cc2Cl)cc(-c2ccccn2)n1` ? Its EC50 was 0.4

* * *

Documented log10 of EC50 across a set of compounds
Molecular target: UniProt:O43194
Sequence (O43194 whole entry): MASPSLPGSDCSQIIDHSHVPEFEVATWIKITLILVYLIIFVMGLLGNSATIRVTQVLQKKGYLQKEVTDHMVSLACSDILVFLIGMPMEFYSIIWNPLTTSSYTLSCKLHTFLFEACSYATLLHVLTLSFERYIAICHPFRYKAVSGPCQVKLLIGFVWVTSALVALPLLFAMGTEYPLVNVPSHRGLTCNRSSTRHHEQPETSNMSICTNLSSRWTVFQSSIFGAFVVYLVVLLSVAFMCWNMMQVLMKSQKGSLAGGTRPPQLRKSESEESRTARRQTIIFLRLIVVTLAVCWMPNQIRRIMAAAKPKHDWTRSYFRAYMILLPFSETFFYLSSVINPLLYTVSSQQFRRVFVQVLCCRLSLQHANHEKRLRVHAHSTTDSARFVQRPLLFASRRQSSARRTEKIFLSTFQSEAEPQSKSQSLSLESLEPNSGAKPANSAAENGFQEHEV
Assay: Agonist activity at human GPR39 expressed in HEK293 cells by IP1 assay
Assay type: functional, cell-based
Values below are the log10 of the recorded EC50, with nM as the unit.

So, `CNc1nc(Nc2ccc(N(C)C(C)=O)cc2)cc(-c2ccccn2)n1` ? Its log10 of EC50 was 3.07

So, `COCCNc1nc(NCC2CC2)cc(-c2ccccn2)n1` ? Its log10 of EC50 was 3.34

So, `CNc1nc(NCc2ccncc2)cc(-c2ccccn2)n1` ? Its log10 of EC50 was 1.94

* * *

Assay: Induction of GLP1 secretion in mouse STC1 cells incubated for 2 hrs by fluorescent bead based ELISA method
Format: functional, cell-based
Details: STC-1, 2 h
Documented pEC50 across a set of compounds
// pEC50 here means minus log10 of the molar concentration (mol/L)

Example results:
[
  {
    "compoundStructure": "CNc1nc(NCc2ccc(NC(C)=O)cc2F)cc(-c2ccccn2)n1",
    "recordedMeasurement": 6.70
  },
  {
    "compoundStructure": "CNc1nc(NCc2ccc(NS(C)(=O)=O)cc2Cl)cc(-c2ccccn2)n1",
    "recordedMeasurement": 7.22
  },
  {
    "compoundStructure": "CNc1nc(NCc2ccc(NC(C)=O)cc2)cc(-c2ccccn2)n1",
    "recordedMeasurement": 5.36
  }
]

Attention now turns to another entry.
So, `CNc1nc(NCc2ccc(NS(C)(=O)=O)cc2)cc(-c2ccccn2)n1` ? Its pEC50 was 5.89

* * *

Assay: Cmax in C57BL/6 mouse at 30 mg/kg, po administered as single dose after 1 to 1.5 hrs by LC/MS/MS method
Type: ADME, organism-based
Design: dose 30 mg/kg, route oral
Conditions: in vivo
propertyMeasured: Cmax (µM)
Numeric only. Scale: µM

So, `CNc1nc(NCc2ccc(NS(C)(=O)=O)cc2Cl)cc(-c2ccccn2)n1` ? Its Cmax was 6.1

* * *

Assay: Clearance in Sprague-Dawley rat at 1 mg/kg, iv administered as single dose
Assay type: ADME, organism-based
Design: dose 1 mg/kg, route intravenous
Conditions: in vivo
propertyMeasured: clearance (mL/min/kg)
Numeric only. Scale: mL/min/kg

So, `CNc1nc(NCc2ccc(S(C)(=O)=O)cc2)cc(-c2ccccn2)n1` ? Its clearance was 18

* * *

Test: Clearance in Sprague-Dawley rat at 2 mg/kg, iv administered as single dose
Type: ADME, organism-based
Parameters: dose 2 mg/kg, route intravenous
Details: in vivo
propertyMeasured: clearance (mL/min/kg)
Numeric only. Scale: mL/min/kg

So, `O=S(=O)(NC[C@H]1CC[C@H](CNc2cc(-c3ccccn3)nc(NC3CC3)n2)CC1)c1cccc(F)c1` ? Its clearance was 42

* * *

Molecular target: G-protein coupled receptor 39 (Mus musculus, UniProt Q5U431)
Sequence (Q5U431 whole entry): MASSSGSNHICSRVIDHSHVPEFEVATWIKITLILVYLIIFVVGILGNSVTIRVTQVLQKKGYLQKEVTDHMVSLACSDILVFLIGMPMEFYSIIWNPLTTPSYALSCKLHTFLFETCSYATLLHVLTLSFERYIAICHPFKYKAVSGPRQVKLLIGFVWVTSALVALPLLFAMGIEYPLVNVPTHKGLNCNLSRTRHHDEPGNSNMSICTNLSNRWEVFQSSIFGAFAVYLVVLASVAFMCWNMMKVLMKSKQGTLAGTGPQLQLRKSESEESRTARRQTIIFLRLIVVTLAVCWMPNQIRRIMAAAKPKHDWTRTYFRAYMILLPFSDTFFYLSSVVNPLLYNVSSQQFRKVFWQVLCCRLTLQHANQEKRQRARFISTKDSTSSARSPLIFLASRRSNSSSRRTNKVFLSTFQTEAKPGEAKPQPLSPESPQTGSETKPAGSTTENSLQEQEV
Experiment: Agonist activity at mouse GPR39 expressed in HEK293 cells by IP1 assay
Type: functional, cell-based
Documented EC50 across a set of compounds
Numeric only. Scale: nM

Example results:
[
  {
    "compoundStructure": "CNc1nc(Nc2ccc(N(C)C(C)=O)cc2)cc(-c2ccccn2)n1",
    "measurementUnits": "nM",
    "EC50": 2610
  },
  {
    "compoundStructure": "CNc1nc(NC2(c3ccc(Cl)cc3)CCC2)cc(-c2ccccn2)n1",
    "measurementUnits": "nM",
    "EC50": 34
  },
  {
    "compoundStructure": "Cc1nc(NCc2ccc(Cl)cc2)cc(-c2ccccn2)n1",
    "measurementUnits": "nM",
    "EC50": 17
  },
  {
    "compoundStructure": "CNC(=O)c1ccc(CNc2cc(-c3ccccn3)nc(NC)n2)cc1",
    "measurementUnits": "nM",
    "EC50": 8
  },
  {
    "compoundStructure": "CNc1nc(NCc2ccc(OC(F)(F)F)cc2)cc(-c2ccccn2)n1",
    "measurementUnits": "nM",
    "EC50": 7
  },
  {
    "compoundStructure": "CNc1nc(NCc2ccc(NC(C)=O)cc2)cc(-c2ccccn2)n1",
    "measurementUnits": "nM",
    "EC50": 2
  },
  {
    "compoundStructure": "CNc1nc(NCC2CC2)cc(-c2ccccn2)n1",
    "measurementUnits": "nM",
    "EC50": 115
  },
  {
    "compoundStructure": "CNc1nc(NCc2ccc(Cl)cc2Cl)cc(-c2ccccn2)n1",
    "measurementUnits": "nM",
    "EC50": 0.5
  },
  {
    "compoundStructure": "CNc1nc(NCC(C)(C)C)cc(-c2ccccn2)n1",
    "measurementUnits": "nM",
    "EC50": 365
  },
  {
    "compoundStructure": "CNc1nc(NCc2ccc(S(C)(=O)=O)cc2)cc(-c2ccccn2)n1",
    "measurementUnits": "nM",
    "EC50": 185
  }
]

So, `CNc1nc(NCc2ccc(NS(C)(=O)=O)cc2)cc(-c2ccccn2)n1` ? Its EC50 was 8

So, `COCCNc1nc(NCC2CC2)cc(-c2ccccn2)n1` ? Its EC50 was 10000

So, `CN(C)c1nc(NCC2CC2)cc(-c2ccccn2)n1` ? Its EC50 was 6720

* * *

Target: Protein Gpr39 (Rattus norvegicus)
Experiment: Agonist activity at rat GPR39 by IP1 assay
Format: functional
Documented EC50 across a set of molecules
Numeric only. Scale: nM

[
  {
    "compoundStructure": "CNc1nc(NCc2ccc(NS(C)(=O)=O)cc2Cl)cc(-c2ccccn2)n1",
    "assayedTarget": "Protein Gpr39 (Rattus norvegicus)",
    "recordedMeasurement": 0.4
  },
  {
    "compoundStructure": "O=S(=O)(NC[C@H]1CC[C@H](CNc2cc(-c3ccccn3)nc(NC3CC3)n2)CC1)c1cccc(F)c1",
    "assayedTarget": "Protein Gpr39 (Rattus norvegicus)",
    "recordedMeasurement": 1
  }
]

Attention now turns to another entry.
So, `O=S(=O)(NC[C@H]1CC[C@H](CNc2nc(NC3CC3)cc(-c3ccccn3)n2)CC1)c1cccc(F)c1` ? Its EC50 was 12

* * *

Experiment: Hepatic clearance in rat liver microsomes
Type: ADME
propertyMeasured: CLhep predicted

[
  {
    "compoundStructure": "CNc1nc(NCc2ccc(Cl)cc2Cl)cc(-c2ccccn2)n1",
    "CLhep predicted": "> 52.3 mL/min/kg"
  },
  {
    "compoundStructure": "CNc1nc(NCc2ccc(S(C)(=O)=O)cc2)cc(-c2ccccn2)n1",
    "CLhep predicted": "34.1 mL/min/kg"
  }
]

Attention now turns to another entry.
So, `CNc1nc(NCc2ccc(NS(C)(=O)=O)cc2)cc(-c2ccccn2)n1` ? Its CLhep predicted was 33.6 mL/min/kg
